target: PLpro of SARS-CoV-2 (Severe acute respiratory syndrome coronavirus 2, UniProt P0DTD1); experiment: Enzyme activity test in vitro: inhibition of PLpro at fixed concentration 50 μM (RLRGG-AMC substrate); type: biochemical; conditions: read-out: Inhibition rate at 50 μM (%)
Experimental Readout: inhibition at 50 µM (%)
Reply with just the number (in %).

1. O=C(NC1CCCCC1)c1ccc(Nc2c(-c3ccccc3)nc3cnccn23)cc1	26.1
2. Cc1ccc(-c2nc3cnccn3c2Nc2ccc(C(=O)NCCN(C)C)cc2)cc1	36.6
3. O=C(O)c1ccc(Nc2c(-c3cccc(Br)c3)nc3cnccn23)cc1	20.5

# input Note down inhibition at 50 µM recorded for `COC(=O)c1cccc(Nc2c(-c3ccc(OC)cc3)nc3cnccn23)c1`
# output 36

# input Note down inhibition at 50 µM recorded for `O=C(O)c1cccc(Nc2c(-c3cc(Br)ccc3O)nc3cnccn23)c1`
# output 27.3

# input Note down inhibition at 50 µM recorded for `CNC(=O)c1cccc(Nc2c(-c3ccc(SC)cc3)nc3cnccn23)c1`
# output 31.3

# input Note down inhibition at 50 µM recorded for `CSc1ccc(-c2nc3cnccn3c2Nc2ccc(C(=O)NC(C)C)cc2)cc1`
# output 40.7

# input Note down inhibition at 50 µM recorded for `CCNC(=O)c1cccc(Nc2c(-c3ccc(Cl)cc3)nc3cnccn23)c1`
# output 30.3

# input Note down inhibition at 50 µM recorded for `COc1ccc(-c2nc3cnccn3c2Nc2ccccc2C)cc1OC`
# output 40.7

Reference source for all entries: patent US20250032485A1
